biological target: UniProtKB P08922; test: ROS kinase screening (HotSpot, IC50 mode); type: biochemical; parameters: purchased Reaction Biology Corporation; conditions: 10-dose IC50 mode starting from 20 μM; 10 μM ATP; read-out: Inhibitory Activity against ROS (IC50)
Sequence (P08922 28-2347): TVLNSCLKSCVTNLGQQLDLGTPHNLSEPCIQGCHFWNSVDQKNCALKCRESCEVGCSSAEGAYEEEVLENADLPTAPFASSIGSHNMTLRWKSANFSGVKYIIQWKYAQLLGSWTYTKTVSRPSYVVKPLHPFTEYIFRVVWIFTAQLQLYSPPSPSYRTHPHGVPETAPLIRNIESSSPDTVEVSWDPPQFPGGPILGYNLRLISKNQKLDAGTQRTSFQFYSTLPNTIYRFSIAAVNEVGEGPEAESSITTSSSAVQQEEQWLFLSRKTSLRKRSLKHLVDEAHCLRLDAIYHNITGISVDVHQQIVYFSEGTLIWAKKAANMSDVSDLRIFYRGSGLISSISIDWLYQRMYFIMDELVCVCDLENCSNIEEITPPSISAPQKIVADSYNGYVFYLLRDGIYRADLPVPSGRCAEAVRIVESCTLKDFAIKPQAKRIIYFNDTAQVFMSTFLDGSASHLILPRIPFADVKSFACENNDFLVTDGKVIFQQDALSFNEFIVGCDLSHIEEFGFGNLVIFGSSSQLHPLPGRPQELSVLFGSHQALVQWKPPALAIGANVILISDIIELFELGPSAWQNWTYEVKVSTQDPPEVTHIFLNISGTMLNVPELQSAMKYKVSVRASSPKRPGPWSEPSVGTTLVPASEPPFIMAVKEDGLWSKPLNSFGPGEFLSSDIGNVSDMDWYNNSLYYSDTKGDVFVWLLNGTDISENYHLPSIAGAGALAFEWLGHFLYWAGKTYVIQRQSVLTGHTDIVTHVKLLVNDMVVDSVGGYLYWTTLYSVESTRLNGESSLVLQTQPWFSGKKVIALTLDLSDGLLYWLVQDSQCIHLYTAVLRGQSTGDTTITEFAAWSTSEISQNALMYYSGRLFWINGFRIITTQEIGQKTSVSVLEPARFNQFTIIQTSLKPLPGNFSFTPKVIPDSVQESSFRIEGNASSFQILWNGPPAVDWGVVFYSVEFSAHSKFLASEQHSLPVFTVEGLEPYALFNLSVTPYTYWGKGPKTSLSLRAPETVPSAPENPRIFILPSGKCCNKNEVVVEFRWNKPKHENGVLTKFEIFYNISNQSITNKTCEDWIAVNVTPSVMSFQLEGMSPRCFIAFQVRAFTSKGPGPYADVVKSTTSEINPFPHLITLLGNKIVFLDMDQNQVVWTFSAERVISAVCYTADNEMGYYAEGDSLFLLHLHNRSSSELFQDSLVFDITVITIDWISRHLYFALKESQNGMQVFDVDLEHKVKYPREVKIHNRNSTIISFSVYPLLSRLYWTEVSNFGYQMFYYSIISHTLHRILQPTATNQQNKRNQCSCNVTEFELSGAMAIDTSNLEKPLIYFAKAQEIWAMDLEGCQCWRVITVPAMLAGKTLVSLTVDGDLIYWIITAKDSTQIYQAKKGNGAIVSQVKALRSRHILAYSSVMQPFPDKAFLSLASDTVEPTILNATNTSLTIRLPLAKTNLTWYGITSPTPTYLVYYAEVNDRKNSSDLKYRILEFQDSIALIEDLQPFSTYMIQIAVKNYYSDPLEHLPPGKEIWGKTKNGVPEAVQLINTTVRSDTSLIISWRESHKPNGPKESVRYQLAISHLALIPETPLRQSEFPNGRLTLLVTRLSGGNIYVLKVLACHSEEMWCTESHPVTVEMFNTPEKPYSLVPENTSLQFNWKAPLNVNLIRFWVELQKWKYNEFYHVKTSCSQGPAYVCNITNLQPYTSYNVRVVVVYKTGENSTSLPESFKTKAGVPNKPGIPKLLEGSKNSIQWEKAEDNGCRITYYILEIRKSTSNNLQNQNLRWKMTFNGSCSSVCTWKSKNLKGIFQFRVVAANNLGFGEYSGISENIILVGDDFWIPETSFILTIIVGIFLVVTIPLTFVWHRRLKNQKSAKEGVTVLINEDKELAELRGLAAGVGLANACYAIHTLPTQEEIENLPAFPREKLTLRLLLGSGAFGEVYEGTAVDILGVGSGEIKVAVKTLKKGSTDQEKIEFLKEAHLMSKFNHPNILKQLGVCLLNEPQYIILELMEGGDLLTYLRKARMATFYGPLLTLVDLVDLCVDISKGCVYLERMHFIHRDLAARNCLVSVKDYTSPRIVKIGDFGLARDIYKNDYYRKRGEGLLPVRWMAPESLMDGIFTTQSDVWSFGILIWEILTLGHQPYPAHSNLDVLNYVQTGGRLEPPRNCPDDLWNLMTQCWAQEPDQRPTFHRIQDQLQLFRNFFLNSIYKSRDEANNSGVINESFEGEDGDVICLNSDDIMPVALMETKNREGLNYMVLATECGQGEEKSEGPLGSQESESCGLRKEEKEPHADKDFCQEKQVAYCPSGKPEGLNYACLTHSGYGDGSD
MEASURED PROPERTY: pIC50
Field pIC50 (float): negative decimal logarithm of the concentration in molar.

I am curious: what pIC50 value has been reported for `Cc1cc(O)cc(-c2nn(CC#N)cc2-c2cc(NC[C@H](C)O)nc(-c3cccnc3)n2)c1` ?
6.70

I am curious: what pIC50 value has been reported for `Cc1cc(O)cc(-c2nn(CC#N)cc2-c2ccnc(-c3cccnc3)c2)c1` ?
6.68
